testedSystem: feline FcRn complex (FcRn-α subunit and β-microglobulin), biotin labeled (feline)
assay: SPR, pH 7.4
quantityMeasured: Kd (nM)
# output: bare number, implied unit nM

# annotated cases, reported Kd shown
feline IgG1a S252M/S434N (antibody, part only; not given: Variable domains, not shown: another chain or arm of the molecule) constant: ASTTAPSVFPLAPSCGTTSGATVALACLVLGYFPEPVTVSWNSGALTSGVHTFPAVLQASGLYSLSSMVTVPSSRWLSDTFTCNVAHPPSNTKVDKTVRKTDHPPGPKPCDCPKCPPPEMLGGPSIFIFPPKPKDTLMISRTPEVTCLVVDLGPDDSDVQITWFVDNTQVYTAKTSPREEQFNSTYRVVSVLPILHQDWLKGKEFKCKVNSKSLPSPIERTISKAKGQPHEPQVYVLPPAQEELSRNKVSVTCLIKSFHPPDIAVEWEITGQPEPENNYRTTPPQLDSDGTYFVYSKLSVDRSHWQRGNTYTCSVSHEALHNHHTQKSLTQSPGK | 33.8
feline IgG1a S252Y/S434H/Q311W (antibody, part only; not given: variable domains, not shown: another chain or arm of the molecule) constant: ASTTAPSVFPLAPSCGTTSGATVALACLVLGYFPEPVTVSWNSGALTSGVHTFPAVLQASGLYSLSSMVTVPSSRWLSDTFTCNVAHPPSNTKVDKTVRKTDHPPGPKPCDCPKCPPPEMLGGPSIFIFPPKPKDTLYISRTPEVTCLVVDLGPDDSDVQITWFVDNTQVYTAKTSPREEQFNSTYRVVSVLPILHWDWLKGKEFKCKVNSKSLPSPIERTISKAKGQPHEPQVYVLPPAQEELSRNKVSVTCLIKSFHPPDIAVEWEITGQPEPENNYRTTPPQLDSDGTYFVYSKLSVDRSHWQRGNTYTCSVSHEALHHHHTQKSLTQSPGK | 989
feline IgG1a S252H/S434P (antibody, part only; not given: Variable domains, not shown: another chain or arm of the molecule) constant: ASTTAPSVFPLAPSCGTTSGATVALACLVLGYFPEPVTVSWNSGALTSGVHTFPAVLQASGLYSLSSMVTVPSSRWLSDTFTCNVAHPPSNTKVDKTVRKTDHPPGPKPCDCPKCPPPEMLGGPSIFIFPPKPKDTLHISRTPEVTCLVVDLGPDDSDVQITWFVDNTQVYTAKTSPREEQFNSTYRVVSVLPILHQDWLKGKEFKCKVNSKSLPSPIERTISKAKGQPHEPQVYVLPPAQEELSRNKVSVTCLIKSFHPPDIAVEWEITGQPEPENNYRTTPPQLDSDGTYFVYSKLSVDRSHWQRGNTYTCSVSHEALHPHHTQKSLTQSPGK | 12.8

// next item, Kd requested
Identify the reported Kd for the following entry. feline IgG1a S252Y/S434R (antibody, part only; not given: Variable domains, not shown: another chain or arm of the molecule; small tags and cut ends) constant: ASTTAPSVFPLAPSCGTTSGATVALACLVLGYFPEPVTVSWNSGALTSGVHTFPAVLQASGLYSLSSMVTVPSSRWLSDTFTCNVAHPPSNTKVDKTVRKTDHPPGPKPCDCPKCPPPEMLGGPSIFIFPPKPKDTLYISRTPEVTCLVVDLGPDDSDVQITWFVDNTQVYTAKTSPREEQFNSTYRVVSVLPILHQDWLKGKEFKCKVNSKSLPSPIERTISKAKGQPHEPQVYVLPPAQEELSRNKVSVTCLIKSFHPPDIAVEWEITGQPEPENNYRTTPPQLDSDGTYFVYSKLSVDRSHWQRGNTYTCSVSHEALHRHHTQKSLTQSPGK
10900
